So I've got a bunch of compounds here, and I need their z-score values.
Experiment: HepG2 liver cancer cell viability effects, profiling panel, resazurin fluorescence, 24 h, PK04 Diversity Set (AID 1172); note: test concentration not given here
Conditions: higher = more signal
Lab note: record the figure alone, no unit after it.

The reported z-score of the compound CC(=O)OC[C@H]1O[C@H](CC=NOCC[C@@H]2C=C[C@H](OC(C)=O)[C@@H](COC(C)=O)O2)C=C[C@@H]1OC(C)=O was 0.149

The reported z-score of the compound CCC1=NOC(CCC2CC(OC(=O)NCc3cccc4c3OCO4)CC3(CCCC(COC(=O)NCCc4ccc(Cl)cc4)O3)O2)C1 (centres undefined) was 0.22

The reported z-score of the compound CC(C)=CCCC(C)=CCON=C1C[C@@H](O)[C@@H](O)[C@@H]2[C@@H]3C(=O)N(C4CCCCC4)C(=O)[C@@H]3CC[C@H]12 was -0.346

The reported z-score of the compound CON=C(C)CCN1CCCc2nc(C)c(C)cc21 was -0.183

The reported z-score of the compound COC(=O)CC=C[C@@H](C)[C@@H](C=NOC[C@@H](O)[C@H]1O[C@@H]2OC(C)(C)O[C@@H]2[C@H]1O)OC was -0.904

The reported z-score of the compound CCN1C(=O)[C@H]2[C@H]3[C@H](O)[C@H](O)CC(=NO[C@H](C)c4cn([C@H](CO)Cc5ccccc5)nn4)[C@@H]3CC[C@H]2C1=O was -0.948

The reported z-score of the compound CCOC(=O)[C@H](Cc1ccccc1)NC(=O)CCC1CC(OC(=O)NCCc2ccc(F)cc2)CC2(CCCC(COC(=O)NCc3cccc(C(F)(F)F)c3)O2)O1 (some centres undefined) was 0.134

The reported z-score of the compound COC(=O)[C@@H]1CC[C@H](C)[C@@H](c2ccc(Br)cc2)N1C(=O)C(F)(F)F was 0.0841

The reported z-score of the compound CC(=O)OC[C@H]1O[C@H](CC=NO[C@H](C)c2cn([C@@H]3COC[C@H]3O)nn2)C=C[C@@H]1OC(C)=O was -0.648

The reported z-score of the compound CCc1cc2c(nc1CC)CCN(CCC(C)=NOC(C)CN1CCCCc3nc(C)c(C)cc31)C2 (centres undefined) was 0.465

The reported z-score of the compound COC(=O)[C@H](C)NC(=O)CC=C[C@@H](C)[C@@H]1C=C[C@H](O)[C@@H](CO)O1 was -0.261

The reported z-score of the compound C#CCCCON=C1C[C@@H](O)[C@@H](O)[C@@H]2[C@@H]3C(=O)N(C[C@@H]4CCCO4)C(=O)[C@@H]3CC[C@H]12 was -0.344

The reported z-score of the compound CCN1C(=O)[C@H]2[C@H]3[C@H](O)[C@H](O)CC(=NOCC=C(C)CCC=C(C)C)[C@@H]3CC[C@H]2C1=O was -0.623

The reported z-score of the compound Cc1cc2c(nc1C)CCCCN2CC(O)CN1CCCc2nc(-c3ccc(Br)cc3)ccc21 (centres undefined) was -0.225

The reported z-score of the compound CC(CCN1CCCc2nc(C)c(C)cc21)=NO[C@H](C)c1cn([C@@H]2COC[C@H]2O)nn1 was -0.537

The reported z-score of the compound COC(=O)[C@H](C)NC(=O)CCC1CC(OC(=O)NCc2ccc3c(c2)OCO3)CC2(CCCC(COC(=O)NCCC(C)C)O2)O1 (some centres undefined) was 0.506

The reported z-score of the compound CC(=O)OC[C@H]1O[C@@H](ON=C(C)C)[C@H](OC(C)=O)[C@@H](OC(C)=O)[C@@H]1OC(C)=O was 0.199

The reported z-score of the compound O=C1C=C[C@@H](O)[C@@H]2[C@@H]3C(=O)N(C4CCCCC4)C(=O)[C@@H]3CC[C@@H]12 was -0.295

The reported z-score of the compound CN1CCc2nc(-c3ccccc3)c(-c3ccccc3)cc2C1 was 0.713

The reported z-score of the compound COc1ccc(O[C@H]2C=C[C@@H](c3ccccc3)O[C@@H]2CON=C(C)CCN2CCCc3nc(C)c(C)cc32)cc1 was 0.165

The reported z-score of the compound Cc1cc(C)c(-c2cc([C@H](C)ON=C[C@@H](C)[C@H](OCc3ccccc3)C(C)C)on2)c(C)c1 was -0.811

The reported z-score of the compound CC(C)=CCCC(C)=CCON=C1C[C@@H](O)[C@@H](O)[C@@H]2[C@@H]3C(=O)N([C@@H](C)c4ccccc4)C(=O)[C@@H]3CC[C@@H]12 was -0.243

The reported z-score of the compound CO[C@@H]1COC(=O)[C@H](COCc2ccccc2)NC(=O)CC=C[C@@H](C)[C@H](OC)COC(=O)[C@@H](C)NC(=O)CC=C[C@H]1C was 0.532

The reported z-score of the compound COc1ccc(COC(=O)NN=C2C[C@@H](O)[C@@H](O)[C@@H]3[C@@H]4C(=O)N(C5CCCCC5)C(=O)[C@@H]4CC[C@@H]23)cc1 was -0.578

The reported z-score of the compound CCN1C(C)=C(C(=O)OC)[C@@H](c2ccccc2)N2C(=O)[C@](O)(C(=O)OC)CC(C(C)=O)=C12 was -0.0348

The reported z-score of the compound O=C1[C@H]2[C@H]3[C@H](O)[C@H](O)CC(=NO[C@@H]4O[C@H](CO)[C@@H](O)[C@H](O)[C@H]4O)[C@H]3CC[C@H]2C(=O)N1c1ccc(F)cc1F was 0.487

The reported z-score of the compound CON(C)C(=O)c1nnc2c(n1)[nH]c1ccccc12 was -0.244

The reported z-score of the compound C[C@H]1C=CCC(=O)OC[C@H](C)C(=O)N2CCC[C@H]2C(=O)OC1 was 0.976

The reported z-score of the compound CCCNC(=O)OC[C@H]1O[C@H](CCON=C2c3cc(OC)ccc3O[C@H](c3cccc(OC)c3)[C@H]2O)C=C[C@@H]1Oc1ccc(OC)cc1 was -0.286
